Listed here are binders together with their documented glycan array binding signal (z-score).
TARGET_OR_SYSTEM: Gal(b1-4)GlcNAc(b1-3)Gal(b1-4)GlcNAc(b1-3)Gal(b1-4)GlcNAc(b1-3)Gal(b1-4)GlcNAc(b1-2)Man(a1-3)[Gal(b1-4)GlcNAc(b1-3)Gal(b1-4)GlcNAc(b1-3)Gal(b1-4)GlcNAc(b1-3)Gal(b1-4)GlcNAc(b1-2)Man(a1-6)]Man(b1-4)GlcNAc(b1-4)[Fuc(a1-6)]GlcNAc
ASSAY_PROTOCOL: glycan array binding signal (z-score within array); higher = stronger binding
RUN_CONDITIONS: glycan notation: IUPAC condensed, linker removed
Many of the other results were omitted from the sample, so the strongest signals are more common in it than they were.
Please reply with the number alone, leaving off any unit.

The following binders have reported results that may help.
CLEC5A (Homo sapiens), Q9NY25 (protein) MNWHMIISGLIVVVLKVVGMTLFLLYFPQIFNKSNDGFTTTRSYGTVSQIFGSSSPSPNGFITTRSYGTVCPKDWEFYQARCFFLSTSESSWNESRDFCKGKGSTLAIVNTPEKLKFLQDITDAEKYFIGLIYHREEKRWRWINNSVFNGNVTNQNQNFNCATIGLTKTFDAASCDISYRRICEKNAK; 1.88
Langerin K299A/K313A (Homo sapiens), Q9UJ71 (protein) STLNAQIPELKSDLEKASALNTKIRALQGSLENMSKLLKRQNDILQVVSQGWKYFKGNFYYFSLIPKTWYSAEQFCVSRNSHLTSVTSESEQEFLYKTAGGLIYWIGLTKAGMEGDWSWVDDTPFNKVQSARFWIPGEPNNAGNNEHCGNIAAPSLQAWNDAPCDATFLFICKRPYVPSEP; 3.97
LSECtin (Homo sapiens), Q6UXB4 (protein) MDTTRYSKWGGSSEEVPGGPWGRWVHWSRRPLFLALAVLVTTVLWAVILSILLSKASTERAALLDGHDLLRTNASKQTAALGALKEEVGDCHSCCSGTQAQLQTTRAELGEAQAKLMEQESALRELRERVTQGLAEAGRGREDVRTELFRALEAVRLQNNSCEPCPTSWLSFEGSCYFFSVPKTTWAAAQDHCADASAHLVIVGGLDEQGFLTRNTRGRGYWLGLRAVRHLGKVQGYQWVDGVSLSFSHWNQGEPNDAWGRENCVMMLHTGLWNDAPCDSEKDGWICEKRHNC; -0.123
PpFlo2 (Pichia pastoris) (protein) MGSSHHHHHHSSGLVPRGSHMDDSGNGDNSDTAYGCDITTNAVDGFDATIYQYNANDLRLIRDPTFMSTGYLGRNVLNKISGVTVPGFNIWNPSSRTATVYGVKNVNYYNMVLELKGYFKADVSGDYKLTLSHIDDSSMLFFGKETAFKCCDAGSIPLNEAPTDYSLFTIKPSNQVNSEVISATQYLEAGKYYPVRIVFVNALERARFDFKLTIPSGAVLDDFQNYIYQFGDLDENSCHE; -0.243
DrGal9 (Danio rerio) (protein) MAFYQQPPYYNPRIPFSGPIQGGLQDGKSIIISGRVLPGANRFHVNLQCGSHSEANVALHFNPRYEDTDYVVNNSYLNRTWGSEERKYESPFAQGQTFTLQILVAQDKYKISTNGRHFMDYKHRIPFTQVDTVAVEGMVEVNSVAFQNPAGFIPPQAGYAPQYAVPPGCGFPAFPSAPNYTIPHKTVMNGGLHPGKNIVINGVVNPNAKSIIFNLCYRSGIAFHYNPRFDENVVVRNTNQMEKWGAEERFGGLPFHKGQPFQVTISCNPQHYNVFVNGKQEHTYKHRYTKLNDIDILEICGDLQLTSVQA; 3.44
his-Lectin-24A (Drosophila melanogaster) (protein) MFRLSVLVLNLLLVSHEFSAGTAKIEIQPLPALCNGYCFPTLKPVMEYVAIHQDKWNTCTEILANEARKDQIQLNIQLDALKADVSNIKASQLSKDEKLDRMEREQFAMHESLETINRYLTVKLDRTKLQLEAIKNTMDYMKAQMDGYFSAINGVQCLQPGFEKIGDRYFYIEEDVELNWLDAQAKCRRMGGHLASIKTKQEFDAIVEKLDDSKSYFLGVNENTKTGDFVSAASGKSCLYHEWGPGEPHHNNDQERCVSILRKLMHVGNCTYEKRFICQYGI; 3.44
Banana lectin (Musa acuminata) (protein) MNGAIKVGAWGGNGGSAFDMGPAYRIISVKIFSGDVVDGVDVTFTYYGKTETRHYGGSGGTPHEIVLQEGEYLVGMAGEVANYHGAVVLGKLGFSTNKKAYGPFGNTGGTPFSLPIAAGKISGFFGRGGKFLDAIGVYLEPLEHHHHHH; -0.154
HML-Native (Hypnea musciformis), P84871 (protein) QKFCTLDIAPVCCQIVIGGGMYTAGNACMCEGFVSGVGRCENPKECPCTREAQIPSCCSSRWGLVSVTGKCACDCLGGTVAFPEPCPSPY; 4.9
LlpA1 (Pseudomonas fluorescens), Q4KHC3 (protein) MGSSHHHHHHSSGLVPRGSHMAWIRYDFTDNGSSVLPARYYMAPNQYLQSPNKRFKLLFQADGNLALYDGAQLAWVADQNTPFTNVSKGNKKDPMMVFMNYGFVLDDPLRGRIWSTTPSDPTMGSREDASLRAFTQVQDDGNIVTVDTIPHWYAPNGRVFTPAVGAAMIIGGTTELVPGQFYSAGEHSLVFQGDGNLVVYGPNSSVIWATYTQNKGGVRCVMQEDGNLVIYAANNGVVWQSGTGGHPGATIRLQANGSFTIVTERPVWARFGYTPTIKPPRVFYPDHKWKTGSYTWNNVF; 1.12

Now turn to the next binder.
## Input Suppose we examine the binder FGF1 (Homo sapiens), P05230 (protein) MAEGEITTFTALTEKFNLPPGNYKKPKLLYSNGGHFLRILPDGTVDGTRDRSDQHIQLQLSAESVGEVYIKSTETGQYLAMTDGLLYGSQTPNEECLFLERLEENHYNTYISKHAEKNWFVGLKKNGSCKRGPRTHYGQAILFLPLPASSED ; what glycan array binding signal (z-score) value has been reported?
## Output 1.05

The values you see were collected from the supplement of paper PMC8728848.
